Origin of the recorded values: ChEMBL document CHEMBL3046672

Parameter zone of inhibition at 50 µg/mL: see the listing below.
test system: Staphylococcus aureus; experiment: Antibacterial activity against Staphylococcus aureus at 50 ug/ml; format: functional; settings: read-out: DIZ
Respond with the bare value in mm.

# CHEMICAL STRUCTURE, zone of inhibition at 50 µg/mL [mm]
rows = [
    ("O=C1Nc2ccc(Br)cc2/C1=N/n1c(Cc2ccccc2)n[nH]c1=S", 9),
    ("O=C1/C(=N\\n2c(Cc3ccccc3)n[nH]c2=S)c2cc(Br)ccc2N1CN1CCCCC1", 9),
    ("CCN(CC)CN1C(=O)/C(=N\\n2c(Cc3ccccc3)n[nH]c2=S)c2ccccc21", 11),
    ("CCN(CC)CN1C(=O)/C(=N\\n2c(Cc3ccccc3)n[nH]c2=S)c2cc(Br)ccc21", 9),
    ("CCN(CC)CN1C(=O)/C(=N\\n2c(Cc3ccccc3)n[nH]c2=S)c2cc(Cl)ccc21", 9),
]

(Q) # lookup: zone of inhibition at 50 µg/mL of O=C1/C(=N\n2c(Cc3ccccc3)n[nH]c2=S)c2cc(Br)ccc2N1CN1CCOCC1
(A) 9

(Q) # lookup: zone of inhibition at 50 µg/mL of O=C1Nc2ccccc2/C1=N/n1c(Cc2ccccc2)n[nH]c1=S
(A) 10

(Q) # lookup: zone of inhibition at 50 µg/mL of O=C1/C(=N\n2c(Cc3ccccc3)n[nH]c2=S)c2cc(Cl)ccc2N1CN1CCCCC1
(A) 9

(Q) # lookup: zone of inhibition at 50 µg/mL of O=C1/C(=N\n2c(Cc3ccccc3)n[nH]c2=S)c2ccccc2N1CN1CCOCC1
(A) 10

(Q) # lookup: zone of inhibition at 50 µg/mL of O=C1/C(=N\n2c(Cc3ccccc3)n[nH]c2=S)c2ccccc2N1CN1CCCCC1
(A) 9

(Q) # lookup: zone of inhibition at 50 µg/mL of O=C1/C(=N\n2c(Cc3ccccc3)n[nH]c2=S)c2cc(Cl)ccc2N1CN1CCOCC1
(A) 9
